The entries below are paired with their reported IC50.
Test system: tumor cells
protocol.notes: MTS proliferation assay (72 h read-out)
Type: cell-based
condition: HT1080 cells, read-out: MTS proliferation assay IC50, HT1080
metric.name: IC50

compound="CCOc1ccc(F)cc1C(=O)c1cc2cc(OCOC)ccc2o1 [Example 69]" metric_name=IC50 recorded_measurement="0.1 to 1 µM"
compound="CCOc1ccc(F)cc1C(=O)c1oc2ccc(C)cc2c1N [Example 62]" metric_name=IC50 recorded_measurement="< 0.01 µM"
compound="Nc1c(C(=O)c2cc(F)ccc2N2CCCCC2)oc2ccc(Cl)cc12 [Example 100]" metric_name=IC50 recorded_measurement="0.01 to 0.1 µM"
compound="CCOc1ccc(F)cc1C(=O)c1cc2cc(COC)ccc2o1 [Example 57]" metric_name=IC50 recorded_measurement="0.01 to 0.1 µM"
compound="COc1ccc2oc(C(=O)c3cc(F)ccc3N3CCCCC3)cc2c1 [Example 95]" metric_name=IC50 recorded_measurement="0.01 to 0.1 µM"
compound="Nc1c(C(=O)c2ccccc2N2CCCCC2)sc2ncccc12 [Example 121]" metric_name=IC50 recorded_measurement="> 1 µM"
compound="COc1ccc2oc(C(=O)c3cc(F)ccc3N3CCCCC3C)cc2c1 (stereo not drawn) [Example 97]" metric_name=IC50 recorded_measurement="0.1 to 1 µM"
compound="Nc1c(C(=O)c2cc(F)ccc2N2CCOCC2)oc2ccc(Cl)cc12 [Example 93]" metric_name=IC50 recorded_measurement="0.01 to 0.1 µM"
compound="COc1ccccc1C(=O)c1oc2ccc(Cl)cc2c1N [Ref B, reference compound]" metric_name=IC50 recorded_measurement="0.1 to 1 µM"
compound="Nc1c(C(=O)c2ccccc2OCCN2CCOCC2)oc2ccc(Cl)cc12 [Example 10]" metric_name=IC50 recorded_measurement="> 1 µM"
compound="CCOc1ccccc1C(=O)c1oc2ccc(F)cc2c1N [Example 45]" metric_name=IC50 recorded_measurement="> 1 µM"
compound="Cc1cc2c(N)c(C(=O)c3ccccc3N3CC=CCC3)sc2nc1C [Example 135]" metric_name=IC50 recorded_measurement="0.01 to 0.1 µM"
compound="COc1ccc(OC)c(C(=O)COc2ccc(Cl)cc2C#N)c1 [Ref D, reference compound]" metric_name=IC50 recorded_measurement="> 1 µM"
compound="COc1ccc2oc(C(=O)c3ccccc3OCC(F)(F)F)c(N)c2c1 [Example 60]" metric_name=IC50 recorded_measurement="0.01 to 0.1 µM"
compound="CCOc1ccc(F)cc1C(=O)c1cc2cc(OC(=O)N(C)C)ccc2o1 [Example 72]" metric_name=IC50 recorded_measurement="0.1 to 1 µM"
compound="Nc1c(C(=O)c2ccccc2N2CCOCC2)sc2ncccc12 [Example 122]" metric_name=IC50 recorded_measurement="> 1 µM"
compound="CCOc1ccc(F)cc1C(=O)c1oc2ccc(O)cc2c1N [Example 75]" metric_name=IC50 recorded_measurement="< 0.01 µM"
compound="CCOc1ccc(F)cc1C(=O)c1oc2ccc(OC)cc2c1NS(C)(=O)=O [Example 54]" metric_name=IC50 recorded_measurement="0.01 to 0.1 µM"
compound="CCOc1ccccc1C(=O)c1oc2ccc(I)cc2c1N [Example 43]" metric_name=IC50 recorded_measurement="> 1 µM"
compound="CCOc1ccc(F)cc1C(=O)c1cc2cc(OC(C)=O)ccc2o1 [Example 65]" metric_name=IC50 recorded_measurement="< 0.01 µM"
compound="CCOc1ccc2oc(C(=O)c3cc(F)ccc3OCC)cc2c1 [Example 66]" metric_name=IC50 recorded_measurement="< 0.01 µM"
compound="CN(C)c1ncccc1C(=O)c1oc2ccc(Cl)cc2c1N [Example 77]" metric_name=IC50 recorded_measurement="> 1 µM"
compound="COc1ccc2oc(C(=O)c3cccnc3N3CCCCC3C)cc2c1 (stereo not drawn) [Example 89]" metric_name=IC50 recorded_measurement="0.1 to 1 µM"
compound="Nc1c(C(=O)c2ccccc2N2CC=CCC2)sc2ncccc12 [Example 123]" metric_name=IC50 recorded_measurement="> 1 µM"
compound="CCOc1ccc(F)cc1C(=O)c1oc2ccc(OC)cc2c1N [Example 48]" metric_name=IC50 recorded_measurement="< 0.01 µM"
compound="Cc1cc2c(N)c(C(=O)c3ccccc3N3CCOCC3)sc2nc1C [Example 134]" metric_name=IC50 recorded_measurement="0.01 to 0.1 µM"
compound="CCOc1ccc(F)cc1C(=O)c1cc2cc(OCCOC)ccc2o1 [Example 70]" metric_name=IC50 recorded_measurement="0.1 to 1 µM"
compound="CN1CCN(c2ccc(F)cc2C(=O)c2oc3ccc(Cl)cc3c2N)CC1 [Example 102]" metric_name=IC50 recorded_measurement="> 1 µM"
compound="Nc1c(C(=O)c2cc(F)ccc2N2CC=CCC2)sc2ncccc12 [Example 126]" metric_name=IC50 recorded_measurement="0.1 to 1 µM"
compound="CCOc1ccccc1C(=O)c1cc2cc(OC)ccc2o1 [Example 53]" metric_name=IC50 recorded_measurement="< 0.01 µM"
compound="COc1ccc2oc(C(=O)c3cccnc3N3CCCCC3)cc2c1 [Example 91]" metric_name=IC50 recorded_measurement="< 0.01 µM"
compound="CCOc1ccc(F)cc1C(=O)c1oc2ccc(OC)cc2c1NS(=O)(=O)N(C)C [Example 50]" metric_name=IC50 recorded_measurement="> 1 µM"
compound="CCOc1ccc(C(=O)O)cc1C(=O)c1oc2ccc(Cl)cc2c1N [Example 44]" metric_name=IC50 recorded_measurement="> 1 µM"
compound="CCOc1ccc(F)cc1C(=O)c1cc2cc(OCCN(C)C)ccc2o1 [Example 71]" metric_name=IC50 recorded_measurement="> 1 µM"
compound="Nc1c(C(=O)c2ccccc2OCC(F)(F)F)oc2ccc(Cl)cc12 [Example 61]" metric_name=IC50 recorded_measurement="0.01 to 0.1 µM"
compound="C#CCOc1ccccc1C(=O)c1oc2ccc(Cl)cc2c1N [Example 8]" metric_name=IC50 recorded_measurement="0.1 to 1 µM"
compound="CCOc1ccc(F)cc1C(=O)c1cc2cc(O)ccc2o1 [Example 64]" metric_name=IC50 recorded_measurement="0.01 to 0.1 µM"
compound="Nc1c(C(=O)c2cc(F)ccc2N2CCOCC2)sc2ncc([N+](=O)[O-])cc12 [Example 129]" metric_name=IC50 recorded_measurement="> 1 µM"
compound="Nc1c(C(=O)c2cc(F)ccc2N2CCCCC2)sc2ncccc12 [Example 124]" metric_name=IC50 recorded_measurement="> 1 µM"

###

Tested on: tumor cells
protocol.notes: Mitochondrial membrane potential, JC-1 (read-out 48 h)
Type: cell-based
condition: Homo sapiens; HeLa cells, JC-1, 48 h; read-out: Mitochondrial membrane potential (read-out 48 h) HeLa
metric.name: EC50

compound=COc1ccc(OC(C)C)c(C(=O)c2oc3ccc(Cl)cc3c2N)c1 metric_name=EC50 recorded_measurement="100 to 1000 nM"
compound=COc1ccc2oc(C(=O)c3cc(F)ccc3N3CCOCC3)cc2c1 metric_name=EC50 recorded_measurement="10 to 100 nM"
compound=CCOc1ccc(C(=O)OC)cc1C(=O)c1oc2ccc(Cl)cc2c1N metric_name=EC50 recorded_measurement="100 to 1000 nM"
compound=CCOc1c(OC)cccc1C(=O)c1oc2ccc(Cl)cc2c1N metric_name=EC50 recorded_measurement="> 1000 nM"
compound=CCOc1ccc(Cl)cc1C(=O)COc1nc(C)ccc1C#N metric_name=EC50 recorded_measurement="100 to 1000 nM"
compound=CCOc1ccc(Cl)cc1C(=O)c1oc2ccc(Cl)cc2c1N metric_name=EC50 recorded_measurement="10 to 100 nM"
compound="COc1ccc(OC)c(C(=O)c2oc3ccccc3c2O)c1 [Reference Example A, reference compound]" metric_name=EC50 recorded_measurement="> 1000 nM"
compound=Cc1cc2c(N)c(C(=O)c3cc(F)ccc3N3CCOCC3)sc2nc1C metric_name=EC50 recorded_measurement="> 1000 nM"
compound=CCOc1ccccc1C(=O)c1oc2nc(C)ccc2c1N metric_name=EC50 recorded_measurement="100 to 1000 nM"
compound=CCOc1ccc(N)cc1C(=O)c1oc2ccc(Cl)cc2c1N metric_name=EC50 recorded_measurement="100 to 1000 nM"
compound=CCOc1ccccc1C(=O)c1sc2ncccc2c1N metric_name=EC50 recorded_measurement="> 1000 nM"
compound=CCOc1ccc(F)cc1C(=O)c1sc2ncc(N)cc2c1N metric_name=EC50 recorded_measurement="100 to 1000 nM"
compound=CCCOc1ccc(OC)cc1C(=O)c1oc2ccc(Cl)cc2c1N metric_name=EC50 recorded_measurement="10 to 100 nM"
compound=CCOc1ccc(NC(C)=O)cc1C(=O)c1oc2ccc(Cl)cc2c1N metric_name=EC50 recorded_measurement="> 1000 nM"
compound=CC(C)Oc1ccccc1C(=O)c1oc2ccc(Cl)cc2c1N metric_name=EC50 recorded_measurement="100 to 1000 nM"
compound=CCOc1ccccc1C(=O)c1oc2ccc(Cl)cc2c1O metric_name=EC50 recorded_measurement="> 1000 nM"
compound=CCOc1ccc(Cl)cc1C(=O)c1oc2nc(C)ccc2c1N metric_name=EC50 recorded_measurement="10 to 100 nM"
compound=CCOc1ccc(OC)cc1C(=O)c1oc2ccc(Cl)cc2c1N metric_name=EC50 recorded_measurement="10 to 100 nM"
compound=CCOc1ccccc1C(=O)COc1nc(C)ccc1C#N metric_name=EC50 recorded_measurement="> 1000 nM"
compound=CCOc1ccc(F)cc1C(=O)c1sc2ncccc2c1N metric_name=EC50 recorded_measurement="> 1000 nM"
